These measurements were taken from patent US20170073337A1.

experiment: Solubility test; type: physicochemical; details: JP 1st fluid, 25 °C, pH 1.2, simulated gastric fluid, kinetic from dmso stock; read-out: JP1
Please respond with reported solubility kinetic at 16 h for every item in the list.

// worked examples, solubility kinetic at 16 h included
- CO[C@H]1[C@@H](CF)OC(N)=N[C@]1(C)c1cc(NC(=O)c2ncc(Cl)cc2Cl)ccc1F: 41.9 µM
- C[C@]1(c2nc(NC(=O)c3ccc(C#N)cn3)ccc2F)N=C(N)S[C@H](CF)[C@@H]1F: 35.8 µM
- C[C@H]1SC(N)=N[C@](C)(c2nc(NC(=O)c3cnc(OCF)cn3)ccc2F)[C@H]1F: > 50 µM

Go through the items and report each one's solubility kinetic at 16 h.
1. CO[C@H]1[C@@H](C(F)(F)F)OC(N)=N[C@]1(C)c1cc(NC(=O)c2ccc(C#N)cn2)ccc1F
2. C[C@H]1[C@@H](C(F)F)OC(N)=N[C@]1(C)c1cc(NC(=O)c2ccc(C#N)cn2)ccc1F
3. C[C@H](F)[C@H]1OC(N)=N[C@](C)(c2cc(NC(=O)c3ccc(C#N)cn3)ccc2F)[C@H]1F
4. C[C@]1(c2cc(NC(=O)c3ccc(C#N)cn3)ccc2F)N=C(N)O[C@H](CF)[C@@H]1OCC(F)(F)F

["44.4 µM", "38.8 µM", "39.6 µM", "40 µM"]
